Origin of the recorded values: patent EP4371976B1

# Test Method Notes: Apparent pKa of LNPs comprising the ionizable lipid (Table 6)
# Condition Set: standard formulation 50:10:38.5:1.5
Observation Type: Apparent pKa
Give the figure by itself; no unit, no explanation.

Look over these answered cases.
1. CCCCCCCCC(CCCCCCCC)OC(=O)C(CSCCC(=O)OCCCCCC)CC(=O)NCCCn1ccnc1 (stereo not shown) :: 5.70
2. CCCCCCCC#CCOC(=O)CCSCCC(NC(=O)C(CCCCCC)CCCCCCCC)C(=O)NCCN1CCOCC1 (stereo not shown) :: 4.83
3. CCCCCCCC/C=C\CCCCCCCCOC(=O)CCSCCC(NC(=O)C(CCCCCCCC)CCCCCCCCCC)C(=O)NCCCN1CCOCC1 (stereo not shown) :: 5.54

Read the next record carefully.
Hello, please tell me recorded Apparent pKa for this one: CCCCCCCCCCCCOC(=O)CCSCCC(C(=O)NCCCn1ccnc1)C(=O)OC(CCCCCCCC)CCCCCCCC (stereo not shown)
6.33

====

# Test Method Notes: Size distribution, polydispersity and Z-potential of LNPs by dynamic light scattering (Malvern Zetasizer)
# Type: physicochemical
# Condition Set: LNPs, standard formulation 50:10:38.5:1.5; DLS
Observation Type: Particle size/ Ø (nm)
Field: numeric (nm). Do not append units.

Look over these answered cases.
1) CCCCCCCCC(CCCCCC)C(=O)NC(CCSCCC(=O)OCCCCCC)C(=O)NCCCn1ccnc1 (stereo not shown) [VC-LC-0268] :: 173
2) CCCCCCCCC(CCCCCC)COC(=O)C(CCSCCC(=O)OCCCCCCCC(C)C)C(=O)NCCCN1CCOCC1 (stereo not shown) [VC-LC-0607] :: 148.0

Read the next record carefully.
Hello, please tell me recorded Particle size/ Ø (nm) for this one: CCCCCCCC/C=C\CCCCCCCCOC(=O)CCSCCC(NC(=O)C(CCCCCCCC)CCCCCCCCCC)C(=O)NCCCN1CCOCC1 (stereo not shown) [VC-LC-0587]
150.3

====

# Test Method Notes: RNA encapsulation efficiency of LNPs by Quant-IT Ribogreen
# Assay type: physicochemical
# Condition Set: LNPs with luciferase mRNA; ionizable lipid:non-cationic lipid:sterol:PEG-modified lipid 50:10:38.5:1.5; percentage of RNA entrapped in the LNP
Quick reference for Encaps. efficiency (%) among some compounds
Field: numeric (%). Do not append units.

1) CCCCCCCCCCCCCCCCOC(=O)CCSCCC(NC(=O)C(CCCCCC)CCCCCCCC)C(=O)NCCCN(CCO)CCO (stereo not drawn) :: 86.70

Hello, please tell me recorded Encaps. efficiency (%) for this one: CCCCCCCCOC(=O)CCSCCC(NC(=O)C(CCCCCC)CCCCCCCC)C(=O)NCCCn1ccnc1 (stereo not drawn)
36.60

Hello, please tell me recorded Encaps. efficiency (%) for this one: CCCCCCCCCCCCC(CCCCCCCCCC)COC(=O)CCSCCC(NC(=O)C(CCCCCCCC)CCCCCCCCCC)C(=O)NCC1CCN(C)CC1 (stereo not drawn)
52.01

====

# Test Method Notes: Size distribution, polydispersity and Z-potential of LNPs by dynamic light scattering (Malvern Zetasizer)
# Assay type: physicochemical
# Condition Set: LNPs, standard formulation 50:10:38.5:1.5; DLS
# Procedure: The LNP solution was then adjusted to a final concentration of mRNA of 100 µg/ml. Size distribution, polydispersity and Z-potential were measured by dynamic light scattering (DLS) using Malvern Zetasizer Advance Lab Blue Label. RNA encapsulation was assessed by Quant-IT® Ribogreen following the manufacturer's instructions.
Observation Type: Z Potential (± D.E.) [mV] (mV)
Field: numeric (mV). Do not append units.

Hello, please tell me recorded Z Potential (± D.E.) [mV] for this one: CCCCCCCCC(CCCCCC)C(=O)NC(CCSCCC(=O)OCCCCCC(C)C)C(=O)NCCCN1CCOCC1 (stereo not shown) [VC-LC-0171]
-23.07

Hello, please tell me recorded Z Potential (± D.E.) [mV] for this one: CCCCCCCCC(CCCCCCCC)OC(=O)C(CSCCC(=O)OCCCCCC(C)C)CC(=O)NCCCN1CCOCC1 (stereo not shown) [VC-LC-0548]
-8.82

Hello, please tell me recorded Z Potential (± D.E.) [mV] for this one: CCCCCCCCCCC(CCCCCCCC)C(=O)NC(CCSCCC(=O)OCCCCCC)C(=O)NC1CCN(C)CC1 (stereo not shown) [VC-LC-0566]
-3.35

Hello, please tell me recorded Z Potential (± D.E.) [mV] for this one: CCCCCCCCCCCCOC(=O)CCSCCC(NC(=O)C(CCCCCCCC)CCCCCCCCCC)C(=O)NCC1CCN(C)CC1 (stereo not shown) [VC-LC-0511]
4.06

====

# Test Method Notes: Size distribution, polydispersity and Z-potential of LNPs by dynamic light scattering (Malvern Zetasizer)
# Format: physicochemical
# Condition Set: LNPs, standard formulation 50:10:38.5:1.5; DLS
Observation Type: Particle size/ Ø (nm)
Field: numeric (nm). Do not append units.

Hello, please tell me recorded Particle size/ Ø (nm) for this one: CCCCCCCCCCCCOC(=O)CCSCC(CC(=O)NCCCN1CCOCC1)C(=O)OC(CCCCCCCC)CCCCCCCC (stereo not shown)
140.3

Hello, please tell me recorded Particle size/ Ø (nm) for this one: CCCCCCCCCCCCCCOC(=O)CCSCCC(C(=O)NCCCn1ccnc1)C(=O)OC(CCCCCCCC)CCCCCCCC (stereo not shown)
134.6

Hello, please tell me recorded Particle size/ Ø (nm) for this one: CCCCCCCCCCC(CCCCCCCC)C(=O)NC(CCSCCC(=O)OCCCCCCCC(C)C)C(=O)NCC1CCN(C)CC1 (stereo not shown)
170.1

Hello, please tell me recorded Particle size/ Ø (nm) for this one: CCCCCCCCC(CCCCCCCC)OC(=O)C(CSCCC(=O)OCCCCCCCC(C)C)CC(=O)NCCCN1CCOCC1 (stereo not shown)
156.3

Hello, please tell me recorded Particle size/ Ø (nm) for this one: CCCCCCCCCCCCCCCCCCOC(=O)CCSCC(CC(=O)NCCCN1CCOCC1)C(=O)OC(CCCCCCCC)CCCCCCCC (stereo not shown)
164.2

Hello, please tell me recorded Particle size/ Ø (nm) for this one: CCCCCCCCCCCCC(CCCCCCCCCC)COC(=O)CCSCCC(NC(=O)C(CCCCCC)CCCCCCCC)C(=O)NCCN(CC)CC (stereo not shown)
156.3

Hello, please tell me recorded Particle size/ Ø (nm) for this one: CCCCCCCCCCCCCCCCCCCCCCOC(=O)CCSCC(CC(=O)NCCCN1CCOCC1)C(=O)OC(CCCCCCCC)CCCCCCCC (stereo not shown)
194.9

====

Quick reference for Encaps. efficiency among some compounds
# Test Method Notes: RNA encapsulation efficiency of LNPs by Quant-IT Ribogreen
# Format: physicochemical
# Condition Set: Table 8; LNP 50:10:38.5:1.5, luciferase mRNA
Field: numeric (%). Do not append units.

Hello, please tell me recorded Encaps. efficiency for this one: CCCCCCCCC(CCCCCCCC)OC(=O)C(CSCCC(=O)OCCCCCC(C)C)CC(=O)NCCCn1ccnc1 (stereo not shown) [VC-LC-0302]
40.6

Hello, please tell me recorded Encaps. efficiency for this one: CCCCCCCCC(CCCCCCCC)OC(=O)C(CSCCC(=O)OCCCCCC(C)C)CC(=O)NCCCN1CCOCC1 (stereo not shown) [VC-LC-0548]
30.22

Hello, please tell me recorded Encaps. efficiency for this one: CCCCCCCCCCC(CCCCCCCC)C(=O)NC(CCSCCC(=O)OCC(CCCCCC)CCCCCCCC)C(=O)NCC1CCN(C)CC1 (stereo not shown) [VC-LC-0508]
91.49

Hello, please tell me recorded Encaps. efficiency for this one: CCCCCCCCCCCCCOC(=O)CCSCCC(C(=O)NCCCn1ccnc1)C(=O)OC(CCCCCCCC)CCCCCCCC (stereo not shown) [VC-LC-0362]
73.5

Hello, please tell me recorded Encaps. efficiency for this one: CCCCCCCCC(CCCCCC)COC(=O)CCSCCC(NC(=O)C(CCCCCC)CCCCCCCC)C(=O)NCC1CCN(C)CC1 (stereo not shown) [VC-LC-0491]
72.1

Hello, please tell me recorded Encaps. efficiency for this one: CCCCCCCC/C=C\CCCCCCCC(=O)NC(CCSCCC(=O)OCCCCCCCCCCCCC)C(=O)NCCCN(CCO)CCO (stereo not shown) [VC-LC-0289]
89.3

Hello, please tell me recorded Encaps. efficiency for this one: CCCCCCCCCCCCCCCCCCOC(=O)CCSCCC(NC(=O)C(CCCCCC)CCCCCCCC)C(=O)NCCCn1ccnc1 (stereo not shown) [VC-LC-0262]
33.79

====

# Test Method Notes: RNA encapsulation efficiency of LNPs by Quant-IT Ribogreen
# Type: physicochemical
# Condition Set: LNPs with luciferase mRNA; ionizable lipid:non-cationic lipid:sterol:PEG-modified lipid 50:10:38.5:1.5; percentage of RNA entrapped in the LNP
# Method: The mRNA aqueous solution was then carefully added to the ethanol solution, and the resulted solution was homogenized by pipetting up and down for 4-5 times. The resulting LNPs were immediately diluted 1:1 with Tris buffer and dialyzed overnight against Tris buffer containing 15% sucrose. The resulting LNP solution was then collected, and the encapsulated mRNA was assessed by Quant-IT® Ribogreen (Invitrogen R11490) following the manufacturer's instructions. […]
Observation Type: Encaps. efficiency (%)
Field: numeric (%). Do not append units.

1) CCCCCCCC#CCOC(=O)CCSCCC(NC(=O)CCCCCCCCCCCCCCCCC)C(=O)NC1CCN(C)CC1 (stereo not shown) [VC-LC-0437] :: 99.92

Hello, please tell me recorded Encaps. efficiency (%) for this one: CCCCCCCCCCCCCOC(=O)CCSCCC(NC(=O)C(CCCCCCCC)CCCCCCCCCC)C(=O)NCC1CCN(C)CC1 (stereo not shown) [VC-LC-0507]
95.15

Hello, please tell me recorded Encaps. efficiency (%) for this one: CCCCCCCCC(CCCCCCCC)OC(=O)C(CSCCC(=O)OCCCCCCCC(C)C)CC(=O)NCCCN1CCOCC1 (stereo not shown) [VC-LC-0542]
33.76

Hello, please tell me recorded Encaps. efficiency (%) for this one: CCCCCCCCCCCCCCCCOC(=O)CCSCCC(C(=O)NCCCn1ccnc1)C(=O)OC(CCCCCCCC)CCCCCCCC (stereo not shown) [VC-LC-0369]
92.05
